B1: LOXL2 (parent)
chain: YVEVKEGKTWKQICDKHWTAKNSR

variants of: B1; assay: protein stability index of a GFP-peptide fusion (GPS, HEK-293T) (PSI 1-6); higher = more stable; settings: c terminus: a fixed tail appended;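 further: lentivirally expressed fusions sorted by FACS into six bins by GFP to DsRed ratio, PSI derived from sequencing read proportions per bin multiplied by bin number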
Items are presented alongside their recorded protein stability index.

// known answers, use as guide
INSERT INTO results (mutant_label, observed_value) VALUES
  ('H17T', 1.97),
  ('T9N', 1.99),
  ('G7P', 1.96),
  ('W18G', 2);

IN: // returns reported protein stability index for input C14N
OUT: 1.99
